Hey, just so you know, these numbers are from ChEMBL document CHEMBL4340567.

So I've got a bunch of compounds here, and I need their Activity values.
# test: Induction of alkylation in fluorescein-labelled 5'-GGG-3' double stranded DNA (unknown origin) at 100 uM incubated for 30 mins by EMSA relative to control

# Activity of COc1c(C)cc2c(c1O)[C@@H]1[C@@H]3Cc4cc(C)c(OC)c(O)c4[C@H](CNC(=O)[C@H](C)N)N3[C@@H](C#N)[C@H](C2)N1C = > 90%

GET /value?item= C=CCOC(=O)N[C@@H](C)C(=O)NC[C@H]1c2c(cc(C)c(OC)c2O)C[C@H]2[C@H]3c4c(cc(C)c(OC)c4O)C[C@@H]([C@H](C#N)N12)N3C &field=Activity returns 86%

Per the records, this compound ( COc1c(C)cc2c(c1O)[C@@H]1[C@@H]3Cc4cc(C)c(OC)c(O)c4[C@H](CNC(=O)[C@H](C)NC(=O)OCC4c5ccccc5-c5ccccc54)N3[C@@H](C#N)[C@H](C2)N1C ) has Activity equal to 22%

The recorded Activity for COC1=C(C)C(=O)C2=C(C1=O)[C@H](CNC(=O)[C@H](C)N)N1[C@@H](C#N)[C@@H]3Cc4cc(C)c(OC)c(O)c4[C@H]([C@@H]1C2)N3C is 31%
